Tested on: Vero
protocol.text: Inhibition of mammalian Vero cell viability at 6.25 and 62.5 ug/ml by MTT assay
Type: functional, cell-based
reported.conditions: Chlorocebus sabaeus
Exercise: state measured pIC50 for each of the molecules provided.
Worth noting: pIC50 values are minus log10 of concentrations stated in mol/L.

Briefly, pIC50 measured for C/C(=N/NC(=O)c1ccncc1)c1ccc(N/C(S)=N/c2ccc(C)cc2)cc1 : 3.81

Briefly, pIC50 measured for CCOc1ccc(N/C(S)=N\c2ccc(/C(C)=N\NC(=O)c3ccncc3)cc2)cc1 : 3.84

Briefly, pIC50 measured for C/C(=N/NC(=O)c1ccncc1)c1ccc(N/C(S)=N/c2ccccc2)cc1 : 3.79

Briefly, pIC50 measured for C/C(=N/NC(=O)c1ccncc1)c1ccc(N/C(S)=N/c2ccc(Br)cc2)cc1 : 3.87

From: ChEMBL document CHEMBL1149454
